System: TK-10 renal
Experiment: NCI-60 one-dose screen, 48 h (100 = growth as untreated, 0 = no growth, -100 = all killed)
Details: 10 µM unless noted
The panel holds about 83,000 compounds, 20% with a hit somewhere; the sample as a whole holds those more often.
Threshold rule: growth greater than or equal to 80% is yes; below that, no.

-- ask Could you verify whether the entry Cc1nc(/N=C(\N)NC(=O)Nc2cccc(Cl)c2)sc1C shows growth of no less than 80%?
-- reply yes

-- ask Also, CCC12CCC[N+]3([O-])CCC4(C(=Nc5ccccc54)C(O)(C(=O)OC)C1)C23 (stereo not given) please.
-- reply yes

-- ask Also, O=C(Nc1ccc(Br)cc1F)c1cc(Br)ccc1O please.
-- reply no

-- ask Also, COc1ccc(N2C(=O)C(Oc3ccccc3)C2c2ccc(C)cc2)cc1 (stereo not given) please.
-- reply yes

---

Test system: LOX IMVI melanoma
Assay: NCI-60 one-dose screen, 48 h (100 = growth as untreated, 0 = no growth, -100 = all killed)
Details: 10 µM unless noted
Method: Growth inhibition of the LOX IMVI human tumor cell line is measured as a screen for anti-cancer activity. Cells are grown in 96 well plates and exposed to the test compound for 48 hours. Compounds are tested at a single concentration, which is 10^-5 M for most compounds. The reported endpoint is percent growth (GI% or GIPRCNT), where numbers from 0 - 100% represent growth inhibition, and numbers from -100% - 0 represent cell death. For example, a value of 40 represents 60% growth inhibition. […]
This is part of a sample that, as a whole, favours compounds with a hit. Of some 83,000 tested, about 20% had one in any assay.
Classification scheme (growth): lower range: < 30%; middle range: ≥ 30% and < 80%; upper range: ≥ 80%

-- ask Field: class (growth) — entry: CC1=C(SCCC(=O)OC(C[Se]C2=C(C)C(=O)c3ccccc3C2=O)C(=O)NC(C)(C)C)C(=O)c2ccccc2C1=O (centres undefined)
-- reply lower range

-- ask Also, O=C(Nc1ccc(Cl)cc1F)c1ccccc1O please.
-- reply lower range

-- ask Also, Cc1ccc(C(=O)NN2C(=O)CSC2c2cccc([N+](=O)[O-])c2)cn1 (centres undefined) please.
-- reply upper range

-- ask Also, O=C(CCOCCNC(=O)COc1ccc2c(c1)OCC(c1ccc(F)cc1)C2=O)NCCCC(O)(P(=O)(O)O)P(=O)(O)O (centres undefined) please.
-- reply upper range

-- ask Also, CC(C)C(=O)Nc1ccc(-c2nc(-c3cccc(OCCN4CCOCC4)c3)c(-c3ccnc(Br)c3)[nH]2)cc1 please.
-- reply lower range

-- ask Also, CN(C(=O)NCc1cccc(F)c1Cl)[C@H](COC(=O)Nc1cc2ccccc2cn1)CC(O)CO (some centres undefined) please.
-- reply middle range

-- ask Also, Oc1c(I)cc(I)cc1CNCCCN(Cc1ccccn1)Cc1ccccn1 please.
-- reply lower range

-- ask Also, O=C(COc1ccc(/C=C2\Cc3ccc(Cl)cc3C2=O)cc1)Nc1nc2ccccc2s1 please.
-- reply middle range

---

System: NCI-H226 lung
Assay: NCI-60 one-dose screen, 48 h (100 = growth as untreated, 0 = no growth, -100 = all killed)
Details: 10 µM unless noted
Compounds without any hit were thinned out: in the full panel of roughly 83,000, 20% have a hit.
In plain terms, low growth, meaning strictly below 90%, gives MET, and everything else gives NOT MET.

-- ask Is the reported growth for CCCCCCNC(=O)Oc1ccc(/C(=C(\C)c2ccc(OC)cc2)c2ccc(OCCN3CCCCC3)cc2)cc1 strictly below 90%?
-- reply NOT MET

-- ask Also, c1ccc2c(-c3nc(-c4c[nH]c5ccncc45)cs3)c[nH]c2c1 please.
-- reply MET

-- ask Also, O=C(Nn1c(NCC(=O)N2c3ccccc3Sc3ccccc32)nnc1-c1ccc(O)cc1)c1ccccc1 please.
-- reply NOT MET

-- ask Also, CN1CCN(Cc2ccc(NC(=O)c3ccc(C(C)(C)C)c(C#Cc4cnc5cccnn45)c3)cc2C(F)(F)F)CC1 please.
-- reply MET

-- ask Also, NCCOc1ncccc1/C=C1\c2ccccc2-c2ccc(C(F)F)cc21 please.
-- reply MET

-- ask Also, Cc1ccc2sc3c(NCCN)nc4ccccc4c3c(=O)c2c1 please.
-- reply NOT MET

-- ask Also, O=C(N/N=C/c1ccc(Cl)cc1)c1ccc(C(F)(F)F)nc1Nc1cccc(C(F)(F)F)c1 please.
-- reply MET

-- ask Also, Cc1cc(Cl)ccc1NS(=O)(=O)c1ccc(-c2cnc(C3CC3)o2)cc1 please.
-- reply MET

-- ask Also, NS(=O)(=O)c1ccc(-n2nc(-c3ccc(Cl)cc3)c3ccccc3c2=O)cc1 please.
-- reply NOT MET
